- assay_remarks: A qHTS for Small Molecule Inhibitors of Shiga Toxin; note: 0% is about no effect
- test_conditions: Vero cells, Shiga toxin protein synthesis inhibition reporter; at 38.7 µM, active compounds read high
Hit rate of the full screen: of about 290,000 compounds, about 27,000 (9.3%) were called active. The sample holds actives, similar compounds and a random draw of the others, so the mix is not that of the screen.

compound: CCCc1c(C(=O)O)cnn1-c1ccc(Cl)cc1
inhibition, %: 9.39
--
compound: Cc1ccc(S(=O)(=O)NCCC(=O)Nc2cccc(S(N)(=O)=O)c2)cc1C
inhibition, %: 3.14
--
compound: Cc1ccc(C(=O)NNC(=O)c2cc3cc4ccccc4nc3s2)cc1
inhibition, %: -14.9
--
compound: O=C(N/N=C/c1ccco1)c1ccc(C(=O)N/N=C/c2ccco2)o1
inhibition, %: -3.95
--
compound: O=C(Nc1ccccc1N1CCOCC1)c1csc2c1CCCC2
inhibition, %: 11.3
--
compound: Cc1ccnc(NC(=O)CCNS(=O)(=O)c2ccc(C)c(C)c2)c1
inhibition, %: 75.2
--
compound: COc1ccc(OC)c(NC(=O)CSc2nc(-c3ccccc3)cc(=O)[nH]2)c1
inhibition, %: -4.35
--
compound: COc1ccccc1NC(=O)C1CCCN1S(=O)(=O)c1ccc(Cl)cc1 (stereo not drawn)
inhibition, %: 23.6
--
compound: COc1ccc(/C=N/NC(=O)c2cccc(C(F)(F)F)c2)cc1
inhibition, %: 17.5
--
compound: CCC(C(=O)NCCC(C)C)N(Cc1ccccc1Cl)C(=O)c1snc(C(N)=O)c1N (stereo not drawn)
inhibition, %: -5.11
--
compound: COc1ccc(NC(=O)CN2C(=O)CSc3ccc(S(=O)(=O)N4CCC(C)CC4)cc32)cc1
inhibition, %: 1.63
--
compound: CC1CN(CC(=O)NC(C)c2ccccc2)CC(C)O1 (stereo not drawn)
inhibition, %: -5.21
--
compound: COc1ccc(C(C(=O)NC2CCCC2)N(CCCO)C(=O)Cn2nnc(-c3ccc(C)o3)n2)cc1 (stereo not drawn)
inhibition, %: -6.08
--
compound: CCOC(=O)C1(Cc2ccccc2C(F)(F)F)CCN(C(=O)c2cc(C)n(C)n2)CC1
inhibition, %: 109
--
compound: Cc1nc2cc(NC(=O)NC3CC3)ccc2n1C
inhibition, %: 27.2
--
compound: CCOC(=O)C1=C(C)Nc2nc3ccccc3n2C1c1cccs1 (stereo not drawn)
inhibition, %: -8.56
--
compound: CCOC(=O)C1(CCOc2ccccc2)CCN(C(=O)c2cncs2)CC1
inhibition, %: -4.69
--
compound: CCC1=C(OC(=O)N(CC)CC)N2C(=O)OC(=NCCc3c[nH]c4ccccc34)[C@]2(C)[C@H]2C1=CC[C@H]1C(=O)N(CC)C(=O)[C@H]12
inhibition, %: 2.44
--
compound: C=CCN1C(=NC(=O)COc2ccccc2)SC2CS(=O)(=O)CC21 (stereo not drawn)
inhibition, %: -9.63
--
compound: O=C(CN1C(=O)COc2ccccc21)NCCN1CCc2ccccc2C1
inhibition, %: 29.8
--
compound: CCNC(=O)c1cnn(-c2ccccc2)c1-c1ccccc1
inhibition, %: -0.867
--
compound: CC(C)CC(CC(C)C)=NNC(=O)c1ccc(CSc2nncn2C)cc1
inhibition, %: 16
--
compound: CCOC(=O)C1(Cc2ccc(Cl)cc2)CCN(C(=O)C2=NNC(=O)CC2)CC1
inhibition, %: -6.2
--
compound: Cc1ccc(NC(=O)CSc2nn3c(=O)c(C)nnc3s2)cc1Cl
inhibition, %: 7.47
--
compound: CC(OC(=O)CN1C(=O)COc2ccccc21)C(=O)NCc1ccc(F)cc1 (stereo not drawn)
inhibition, %: -12.1
--
compound: COC(=O)c1c(NC(=O)CCCC(=O)O)sc2c1CCCCC2
inhibition, %: -0.986
--
compound: CC(C)=CCN1CCN(Cc2cc3ccccc3[nH]2)CC1CCO (stereo not drawn)
inhibition, %: 1.5
--
compound: Cc1oc2c(F)c(F)c(F)c(F)c2c1S(=O)(=O)Nc1cccc(C(F)(F)F)c1
inhibition, %: -4.67
